Entries and their % of binding vs wild-type fragment 15-37 values follow.
# target.under.test: T1, EGFRvIII amino acid residues 15 to 37 with Ser15 to Ala mutation (human)
# T1 construct: mutation is already in the entry
# T1 peptide: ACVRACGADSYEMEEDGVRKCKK
# test.description: yeast display flow cytometry, Myc-normalized;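 further: Anti-EGFRvIII monoclonal antibodies tested by flow cytometry on yeast displaying alanine-substituted fragments, two-color indirect fluorescence with anti-Myc signal tracking fusion protein expression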
property: % of binding vs wild-type fragment 15-37 (%)

binder: F265-9C9 (antibody, V domains shown, Mouse hybridoma mAb) VH: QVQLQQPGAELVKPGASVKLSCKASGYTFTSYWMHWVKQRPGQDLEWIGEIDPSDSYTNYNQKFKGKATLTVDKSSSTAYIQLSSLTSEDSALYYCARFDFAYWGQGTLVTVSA VL: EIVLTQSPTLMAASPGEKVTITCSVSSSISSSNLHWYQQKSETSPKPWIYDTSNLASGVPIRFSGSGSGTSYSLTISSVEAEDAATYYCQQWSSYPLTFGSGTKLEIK
property: % of binding vs wild-type fragment 15-37
reported.value: 115

binder: F263-4B3 (antibody, V domains shown, Mouse hybridoma mAb) VH: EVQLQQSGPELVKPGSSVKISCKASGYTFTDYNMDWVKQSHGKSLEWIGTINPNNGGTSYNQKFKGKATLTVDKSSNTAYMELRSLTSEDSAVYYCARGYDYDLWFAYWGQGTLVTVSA VL: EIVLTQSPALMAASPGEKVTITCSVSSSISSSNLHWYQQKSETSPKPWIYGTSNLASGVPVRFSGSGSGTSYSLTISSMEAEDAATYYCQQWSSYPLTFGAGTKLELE
property: % of binding vs wild-type fragment 15-37
reported.value: 94.7

binder: F263-5D8 (antibody, V domains shown, Mouse hybridoma mAb) VH: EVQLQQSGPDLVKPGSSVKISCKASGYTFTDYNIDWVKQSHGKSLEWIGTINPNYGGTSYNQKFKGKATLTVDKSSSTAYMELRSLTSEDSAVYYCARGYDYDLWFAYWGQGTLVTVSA VL: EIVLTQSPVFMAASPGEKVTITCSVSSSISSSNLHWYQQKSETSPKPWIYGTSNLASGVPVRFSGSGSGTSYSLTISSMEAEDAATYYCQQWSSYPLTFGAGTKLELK
property: % of binding vs wild-type fragment 15-37
reported.value: 93.1

binder: F263-4E11 (antibody, V domains shown, Mouse hybridoma mAb) VH: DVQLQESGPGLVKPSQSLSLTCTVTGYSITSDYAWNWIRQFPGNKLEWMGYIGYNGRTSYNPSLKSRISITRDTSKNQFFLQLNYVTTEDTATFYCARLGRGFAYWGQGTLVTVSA VL: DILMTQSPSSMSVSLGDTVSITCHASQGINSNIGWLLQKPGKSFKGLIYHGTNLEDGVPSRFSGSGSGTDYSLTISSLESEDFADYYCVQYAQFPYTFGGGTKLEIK
property: % of binding vs wild-type fragment 15-37
reported.value: 94.9

Entry source: patent US20220193132A1
